Origin of values: PubChem BioAssay AID2221

Would you kindly list inhibition for each of these molecules?
Biological target: Protein RecA (Mycobacterium tuberculosis (strain ATCC 25618 / H37Rv))
Assay: Mtb RecA intein splicing inhibitors, primary screen, biochemical, fluorescence, HTS (AID 2221);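 further: 0% = vehicle wells and 100% = reference inhibitor control wells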
Settings: cell-free RecA intein splicing, stronger effect = higher value, concentration not given here
About 2,200 (0.76%) of roughly 290,000 compounds were called active. Many of the other results were omitted from the sample, so actives are more common in it than they were.
Answers are plain numbers, in %.

Previously resolved entries follow.
O=C(Nc1ccc(Cl)cc1)C1c2cccc[n+]2CC(=O)N1Cc1ccc2c(c1)OCO2 (stereo unspecified)	36.5
N#Cc1c(N2CCCCC2)nc(N)c2c(N)nc(SCC(=O)O)cc12	61.1
Cc1[nH][nH]c(=O)c1C(c1ccc(-c2ccc(Cl)cc2)o1)c1c(C)[nH][nH]c1=O	-2.86
CCOc1ccc(C(c2c(C)[nH][nH]c2=O)c2c(C)[nH][nH]c2=O)cc1OCC	98.1

Answer for every listed entry: what is its inhibition? The entries follow.
1. CC(NC(=O)c1ccco1)c1ccc2c(c1)OCO2 (stereo unspecified)
2. Cc1[nH][nH]c(=O)c1C(c1ccc2c(c1)OCO2)c1c(C)[nH][nH]c1=O
3. N#CCc1c(C#N)c(N)nc(N2CCCC2)c1C#N
4. Cc1ccc(NC(=O)OCc2cncs2)cc1
5. COc1ccc(C2CC(c3cccs3)Nc3nnnn32)cc1 (stereo unspecified)

1. -3.46
2. 97.8
3. 0.638
4. -1.45
5. 2.29

Answer for every listed entry: what is its inhibition? The entries follow.
1. CN(C)c1ccc(/C=C2\NC(=S)N(Cc3ccccc3)C2=O)cc1
2. COc1ccc(-c2ccc(CCC(=O)O)n2NC(=O)c2ccc(C(C)(C)C)cc2)cc1

-1.92
3.63

====

Molecular target: Protein RecA (Mycobacterium tuberculosis (strain ATCC 25618 / H37Rv)) (UniProt P9WHJ3)
Sequence (P9WHJ3 whole entry, looked up): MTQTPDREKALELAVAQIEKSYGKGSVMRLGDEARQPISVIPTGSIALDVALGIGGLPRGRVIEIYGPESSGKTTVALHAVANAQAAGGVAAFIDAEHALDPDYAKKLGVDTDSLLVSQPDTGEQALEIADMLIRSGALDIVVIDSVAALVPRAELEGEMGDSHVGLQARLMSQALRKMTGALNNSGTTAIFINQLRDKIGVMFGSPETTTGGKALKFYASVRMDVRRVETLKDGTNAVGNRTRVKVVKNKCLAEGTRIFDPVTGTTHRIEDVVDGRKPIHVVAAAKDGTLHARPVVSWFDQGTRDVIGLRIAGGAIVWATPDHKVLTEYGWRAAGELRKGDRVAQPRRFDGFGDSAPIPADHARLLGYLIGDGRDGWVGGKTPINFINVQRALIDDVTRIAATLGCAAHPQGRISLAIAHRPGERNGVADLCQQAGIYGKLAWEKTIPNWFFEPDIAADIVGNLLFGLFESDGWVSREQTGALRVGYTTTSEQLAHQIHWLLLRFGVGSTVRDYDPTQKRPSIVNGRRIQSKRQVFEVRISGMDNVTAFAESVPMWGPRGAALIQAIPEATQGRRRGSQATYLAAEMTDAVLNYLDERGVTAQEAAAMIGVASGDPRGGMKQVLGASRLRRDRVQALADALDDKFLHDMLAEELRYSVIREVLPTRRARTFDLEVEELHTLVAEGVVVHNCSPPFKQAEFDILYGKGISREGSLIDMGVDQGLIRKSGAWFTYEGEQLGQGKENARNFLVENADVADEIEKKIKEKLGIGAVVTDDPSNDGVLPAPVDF
Test: Mtb RecA intein splicing inhibitors, primary screen, biochemical, fluorescence, HTS (AID 2221);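 further: 0% = vehicle wells and 100% = reference inhibitor control wells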
Conditions: cell-free RecA intein splicing, concentration not given here
Screen size: about 290,000 compounds; about 2,200 (0.76%) were called active. Cut-off read from the data, not from the text of the source: active = inhibition above about 30%; inconclusive = no clear call, values can overlap the other calls; inactive = below that. What follows is part of a selection rich in actives, with near analogues and random picks from the rest.
Bench note: report the call from active, inactive

Example results:
Cc1nc(CNS(=O)(=O)c2cc([N+](=O)[O-])ccc2C)cs1	inactive
O=C1C=CC(=O)N1c1ccc(N2CCCCC2)cc1	inactive
O=C(Cc1ccc2c(c1)CCCC2)Nc1ccccc1Cl	inactive
O=C(c1[nH]ncc1-c1ccc(Cl)cc1)C1CO1 (stereo not drawn)	active

Tell me the recorded outcome of this test for O=C(Nc1ccccc1Cl)/C(Cl)=C(\Cl)S(=O)c1ccccc1 (stereo not drawn) .
active

Tell me the recorded outcome of this test for ClC1(Cl)CC1CSc1ncn[nH]1 (stereo not drawn) .
inactive

====

Target: Protein RecA (Mycobacterium tuberculosis (strain ATCC 25618 / H37Rv)) (UniProt P9WHJ3)
Assay: Mtb RecA intein splicing inhibitors, primary screen, biochemical, fluorescence, HTS (AID 2221);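 further: 0% = vehicle wells and 100% = reference inhibitor control wells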
Details: cell-free RecA intein splicing, concentration not given here
The campaign covered roughly 290,000 compounds. About 2,200 (0.76%) were called active. Cut-off read from the data, not from the text of the source: active = inhibition above about 30%; inconclusive = no clear call, values can overlap the other calls; inactive = below that. The list comes from a sample in which actives are over-represented; it also holds close analogues and randomly drawn compounds.
Bench note: report the call from Yes for active, No for inactive

CC1=NN(c2ccccc2)C(=O)C1C(=O)c1ccc([N+](=O)[O-])cc1 (centres undefined)	No
C=CCOc1ccc(/C=C2/C(=O)ON=C2C)cc1OCC	No
COc1ccc2c(c1)C(=C(C#N)C#N)C(=O)N2CCc1ccccc1	Yes
Cc1ccc(C)c(NC(CC(=O)c2ccccc2)C(=O)OCC(=O)c2cccs2)c1 (centres undefined)	No
CC(C)(C)C1CCC(C(=O)NCC(c2cccs2)N2CCOCC2)CC1 (centres undefined)	No
CCc1cccc(C)c1NC(=O)COC(=O)CNC(=O)c1cccs1	No

Tell me the recorded outcome of this test for C=CCn1c(SCC(=O)NCC2CCCO2)nc2sc(C)c(C)c2c1=O (centres undefined) .
No

Tell me the recorded outcome of this test for Oc1ccc(/C=N/Nc2nc(-c3ccccc3F)nc3ccccc23)c(O)c1 .
No

Tell me the recorded outcome of this test for COc1cccc(OCCCN2CCCCCC2)c1 .
No

Tell me the recorded outcome of this test for O=C1/C(=C/c2ccc3c(c2)OCO3)CCC/C1=C\c1ccc2c(c1)OCO2 .
Yes

Tell me the recorded outcome of this test for COc1ccc(CNC(=O)CN(c2ccc(OC)c(Cl)c2)S(=O)(=O)c2ccc(C)cc2)cc1 .
No

Tell me the recorded outcome of this test for COc1ccc(-c2csc(Nc3ccc(O)cc3)n2)cc1 .
Yes

Tell me the recorded outcome of this test for Cc1nn(-c2ccc([N+](=O)[O-])cc2)c(N)c1-c1ccccc1 .
No

Tell me the recorded outcome of this test for Cc1ccc(CC2CC(=O)N(c3nc(C)cc(C)n3)C2=O)cc1 (centres undefined) .
No

Tell me the recorded outcome of this test for O=C1/C(=C\c2ccc3c(c2)OCO3)N2CCC1CC2 .
No

Tell me the recorded outcome of this test for O=C(N/N=C/c1ccc2c(c1)OCO2)C(=O)N1CCCC1 .
No
